Values were extracted from patent US20230226223A1.

Biological target: GFP-HTTQ74 reporter construct
Test: cell-based or functional assay
Note to self: values exactly at 90% are class 1. So Reduction of Aggregation (%), filter trap assay at or above 90% is class 1, below is class 0.

Example entries and their recorded answers appear below.
INSERT INTO measurements (binder, category) VALUES
  ('Construct 54, QBP1-JB1-QBP1 (1) (designed binder) MSNWKWWPGIFDGKDYYQTLGLARGASDEEIKRAYRRQALRYHPDKNKEPGAEEKFKEIAEAYDVLSDPRKREIFDRYGEEGLKGSSNWKWWPGIFDGDYKDDDDK', 'class 0'),
  ('Construct 56, JB1-JB1-QBP1 (designed binder) MGKDYYQTLGLARGASDEEIKRAYRRQALRYHPDKNKEPGAEEKFKEIAEAYDVLSDPRKREIFDRYGEEGLKGSGSEFMGKDYYQTLGLARGASDEEIKRAYRRQALRYHPDKNKEPGAEEKFKEIAEAYDVLSDPRKREIFDRYGEEGLKGSGGGGSGGGGSGGGGSGGGGSAAASNWKWWPGIFDLESRGDYKDDDDK', 'class 0'),
  ('Construct 42, JB1-QBP1-QBP1 (9) (designed binder) MGKDYYQTLGLARGASDEEIKRAYRRQALRYHPDKNKEPGAEEKFKEIAEAYDVLSDPRKREIFDRYGEEGLKGSEAAAKSNWKWWPGIFDGGGGSSNWKWWPGIFD', 'class 0'),
  ('Construct 49, JB1-QBP1-QBP1 (16) (designed binder) MGKDYYQTLGLARGASDEEIKRAYRRQALRYHPDKNKEPGAEEKFKEIAEAYDVLSDPRKREIFDRYGEEGLKGSGGGGSGGGGSGGGGSGGGGSAAASNWKWWPGIFDLEGGGGSSRAAASNWKWWPGIFDLE', 'class 0'),
  ('Construct 51, JB1-QBP1-QBP1 (18) (designed binder) MGKDYYQTLGLARGASDEEIKRAYRRQALRYHPDKNKEPGAEEKFKEIAEAYDVLSDPRKREIFDRYGEEGLKGSEAAAKSNWKWWPGIFDLEGGGGSSNWKWWPGIFDLE', 'class 1');

Moving on to another binder below.
-- ask Evaluate Construct 34, JB1-QBP1-QBP1 (1) (designed binder) MGKDYYQTLGLARGASDEEIKRAYRRQALRYHPDKNKEPGAEEKFKEIAEAYDVLSDPRKREIFDRYGEEGLKGSGGGGSGGGGSGGGGSGGGGSAAASNWKWWPGIFDLEGDYKDDDDKGSRAAASNWKWWPGIFDLE : Reduction of Aggregation (%), filter trap assay at minimum 90%?
-- reply class 1
